- measurementDescription: Far-UV CD, helicity from molar ellipticity at 222 nm
- Format: physicochemical
- cond: 5 °C, 50 mM Tris pH 7.0, from [Θ]^222 assuming −39,500 deg cm^2 dmol^−1 for a fully formed α-helix
Response key: y means Helicity (%) >= 2%; n means Helicity (%) < 2%.

The examples below pair each entry with its known result.
Ac-GWAEGLHARPASIAVRAATATG-NH2 [Peptide F22A]	n
Ac-GWAEGLHARPASIFARAATATG-NH2 [Peptide V23A]	y
Ac-GWAEGLHARAASIFVRAATATG-NH2 [Peptide P18A]	y
Ac-GWAEGLHARPASIFVRAATATG-NH2 [Wild-type]	n
Ac-GWAEGLHARAASAFARAATATG-NH2 [P18A/I21A/V23A]	y

Determine whether this substance has Helicity (%) no lower than 2%: Ac-GWAEGLHARPASAFVRAATATG-NH2 [Peptide I21A] n

Determine whether this substance has Helicity (%) no lower than 2%: Ac-GWAEGLHARAASAAARAATATG-NH2 [P18A/I21A/F22A/V23A] y

====

The entries below come with measured m values attached.
- measurementDescription: TFE titration followed by far-UV CD (disordered-helical two-state equilibrium)
- Assay type: physicochemical
- cond: TFE titration by far-UV CD, 20 µM peptide, two-state fit; fitting errors

Below, each entry is followed by its recorded m result.
Ac-GWAEGLHARPASAFVRAATATG-NH2 [Peptide I21A]	197 ± 20 cal/mol (% (v/v))
Ac-GWAEGLHARAASAFARAATATG-NH2 [P18A/I21A/V23A]	184 ± 32 cal/mol (% (v/v))

GET /values?readout=m&item= Ac-GWAEGLHARPASIFARAATATG-NH2 [Peptide V23A] 217 ± 23 cal/mol (% (v/v))

GET /values?readout=m&item= Ac-GWAEGLHARAASAAARAATATG-NH2 [P18A/I21A/F22A/V23A] 157 ± 26 cal/mol (% (v/v))

GET /values?readout=m&item= Ac-GWAEGLHARPASIAVRAATATG-NH2 [Peptide F22A] 134 ± 27 cal/mol (% (v/v))

GET /values?readout=m&item= Ac-GWAEGLHARAASIFVRAATATG-NH2 [Peptide P18A] 181 ± 17 cal/mol (% (v/v))

GET /values?readout=m&item= Ac-GWAEGLHARPASIFVRAATATG-NH2 [Wild-type] 166 ± 23 cal/mol (% (v/v))

====

The entries below come with measured percentage of helical population (in parentheses) values attached.
- measurementDescription: TFE titration followed by far-UV CD (disordered-helical two-state equilibrium)
- Format: physicochemical
- cond: from ∆G^water assuming a two-state conformational equilibrium
Reply with just the number (in %).

Ac-GWAEGLHARAASIFVRAATATG-NH2 [Peptide P18A]	0.15
Ac-GWAEGLHARPASAFVRAATATG-NH2 [Peptide I21A]	0.02
Ac-GWAEGLHARAASAAARAATATG-NH2 [P18A/I21A/F22A/V23A]	0.24

Attention now shifts to the item below.
GET /values?readout=percentage of helical population (in parentheses)&item= Ac-GWAEGLHARAASAFARAATATG-NH2 [P18A/I21A/V23A] 0.17

====

- measurementDescription: TFE titration followed by far-UV CD (disordered-helical two-state equilibrium)
- Type: physicochemical
- cond: product of m- and [TFE]1/2 values; error propagation
quantityKind: ∆G^water (kcal/mol)
Reply with just the number (in kcal/mol).

Ac-GWAEGLHARPASAFVRAATATG-NH2 [Peptide I21A]	4.7
Ac-GWAEGLHARPASIAVRAATATG-NH2 [Peptide F22A]	2.9
Ac-GWAEGLHARAASAFARAATATG-NH2 [P18A/I21A/V23A]	3.5
Ac-GWAEGLHARPASIFARAATATG-NH2 [Peptide V23A]	4.9
Ac-GWAEGLHARAASIFVRAATATG-NH2 [Peptide P18A]	3.6

GET /values?readout=∆G^water&item= Ac-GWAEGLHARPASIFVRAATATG-NH2 [Wild-type] 3.8

GET /values?readout=∆G^water&item= Ac-GWAEGLHARAASAAARAATATG-NH2 [P18A/I21A/F22A/V23A] 3.3

====

- measurementDescription: Translational diffusion NMR (DOSY)
- Format: physicochemical
- cond: DOSY, 10 °C, 100% D2O, 70-120 µM peptide; fitting errors; repeated twice
quantityKind: D (translational diffusion coefficient) (cm^2 s^−1 × 10^6)
Reply with just the number (in cm^2 s^−1 × 10^6).

Below, each entry is followed by its recorded D (translational diffusion coefficient) result.
Ac-GWAEGLHARPASIAVRAATATG-NH2 [Peptide F22A]	1.83
Ac-GWAEGLHARAASAAARAATATG-NH2 [P18A/I21A/F22A/V23A]	1.7
Ac-GWAEGLHARAASAFARAATATG-NH2 [P18A/I21A/V23A]	2.5
Ac-GWAEGLHARPASAFVRAATATG-NH2 [Peptide I21A]	1.9

GET /values?readout=D (translational diffusion coefficient)&item= Ac-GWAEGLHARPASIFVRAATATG-NH2 [Wild-type] 1.95

GET /values?readout=D (translational diffusion coefficient)&item= Ac-GWAEGLHARAASIFVRAATATG-NH2 [Peptide P18A] 2.0

GET /values?readout=D (translational diffusion coefficient)&item= Ac-GWAEGLHARPASIFARAATATG-NH2 [Peptide V23A] 2.0

====

- testedSystem: Rsd^ec (Escherichia coli)
- Construct: His-tag; made in house; host or cells: E. coli C41
- Sequence (P0AFX4 whole entry): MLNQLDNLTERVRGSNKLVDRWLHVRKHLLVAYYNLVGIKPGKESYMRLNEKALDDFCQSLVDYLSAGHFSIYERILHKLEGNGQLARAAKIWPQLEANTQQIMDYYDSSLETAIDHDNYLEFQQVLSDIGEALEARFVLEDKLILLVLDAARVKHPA
- measurementDescription: Isothermal titration calorimetry (ITC), peptide/Rsd^ec binding
- cond: ITC, 25 °C, 50 mM Tris pH 7.0
quantityKind: ΔH, Rsd^ec
Please format your answer as a value with the unit trailing.

Below, each entry is followed by its recorded ΔH, Rsd^ec result.
Ac-GWAEGLHARAASAAARAATATG-NH2 [P18A/I21A/F22A/V23A]	4.3 ± 0.5 kcal/mol
Ac-GWAEGLHARPASAFVRAATATG-NH2 [Peptide I21A]	1.0 ± 0.4 kcal/mol
Ac-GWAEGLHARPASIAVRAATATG-NH2 [Peptide F22A]	1.1 ± 0.5 kcal/mol
Ac-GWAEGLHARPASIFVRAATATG-NH2 [Wild-type]	1.3 ± 0.4 kcal/mol
Ac-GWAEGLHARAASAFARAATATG-NH2 [P18A/I21A/V23A]	0.6 ± 0.4 kcal/mol

GET /values?readout=ΔH, Rsd^ec&item= Ac-GWAEGLHARAASIFVRAATATG-NH2 [Peptide P18A] 1.1 ± 0.4 kcal/mol

GET /values?readout=ΔH, Rsd^ec&item= Ac-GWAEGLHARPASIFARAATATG-NH2 [Peptide V23A] -0.8 ± 0.5 kcal/mol

====

- testedSystem: EIN^sc (N-terminal domain of EI^sc) (Streptomyces coelicolor, UniProt Q9KZP1)
- Sequence (Q9KZP1 1-230): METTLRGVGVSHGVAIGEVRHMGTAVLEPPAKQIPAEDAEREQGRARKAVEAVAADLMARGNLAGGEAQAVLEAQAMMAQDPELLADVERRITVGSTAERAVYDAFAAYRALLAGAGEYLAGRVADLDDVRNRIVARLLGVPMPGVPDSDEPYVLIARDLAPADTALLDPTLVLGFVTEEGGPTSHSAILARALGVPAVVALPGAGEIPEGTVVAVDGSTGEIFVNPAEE
- measurementDescription: biochemical
- Format: binding
quantityKind: Kd
Please format your answer as a value with the unit trailing.

Ac-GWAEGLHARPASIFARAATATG-NH2 [Peptide V23A]	9.1 µM

GET /values?readout=Kd&item= Ac-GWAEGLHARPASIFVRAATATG-NH2 [Wild-type] 2.3 µM

====

- testedSystem: EIN^sc (Streptomyces coelicolor, UniProt Q9KZP1)
- measurementDescription: biochemical
- Assay type: binding
- cond: fluorescence titration, 3 µM protein, 0-30 µM peptide, 25 °C, 50 mM Tris pH 7.0; uncertainties are fitting errors; repeated three times; read-out: Kd, EIN^sc (fluorescence titration, value in parentheses)
quantityKind: pKd
Just the number, please; pKd means minus log10 of the concentration in mol/L.

GET /values?readout=pKd&item= Ac-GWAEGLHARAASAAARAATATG-NH2 [P18A/I21A/F22A/V23A] 4.96

====

- measurementDescription: Far-UV CD, helicity from molar ellipticity at 222 nm
- Assay type: physicochemical
- cond: 5 °C, 50 mM Tris pH 7.0
1 if [Θ]^222 (value in parentheses) is below -700 deg cm^2 dmol^−1. 0 if not; exact matches included in 0.

Lab note: [Θ]^222 (value in parentheses) threshold -700 deg cm^2 dmol^−1. Does this substance come in strictly under it? Ac-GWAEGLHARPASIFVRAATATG-NH2 [Wild-type] 0

Lab note: [Θ]^222 (value in parentheses) threshold -700 deg cm^2 dmol^−1. Does this substance come in strictly under it? Ac-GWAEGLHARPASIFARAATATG-NH2 [Peptide V23A] 1

Lab note: [Θ]^222 (value in parentheses) threshold -700 deg cm^2 dmol^−1. Does this substance come in strictly under it? Ac-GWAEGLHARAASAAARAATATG-NH2 [P18A/I21A/F22A/V23A] 1

====

- measurementDescription: TFE titration followed by far-UV CD (disordered-helical two-state equilibrium)
- Type: physicochemical
- cond: TFE titration by far-UV CD, 20 µM peptide, two-state fit; fitting errors
quantityKind: [TFE]1/2

Ac-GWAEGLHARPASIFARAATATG-NH2 [Peptide V23A]	22.7 ± 0.3 % (v/v)
Ac-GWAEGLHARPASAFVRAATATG-NH2 [Peptide I21A]	23.8 ± 0.4 % (v/v)

Attention now shifts to the item below.
GET /values?readout=[TFE]1/2&item= Ac-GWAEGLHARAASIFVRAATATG-NH2 [Peptide P18A] 19.8 ± 0.4 % (v/v)
